- Test system: MDCK cells
- assay.name: Cytotoxicity determination: cell viability of uninfected cells, CellTiter-Glo luminescent cell viability assay
- details: 250 µM, 48 h, MDCK cells
endpoint.name: Viability % (%)

[[record]]
compound = "COC(=O)[C@H]1O[C@@H](SCCN(C(C)=O)[C@H]2CC[C@]3(C)[C@H]4C(=O)C=C5[C@@H]6C[C@@](C)(C(=O)O)CC[C@]6(C)CC[C@@]5(C)[C@]4(C)CC[C@H]3C2(C)C)[C@H](O)[C@@H](O)[C@@H]1O [Compound 4]"
endpoint_name = "Viability %"
unit = "%"
test_result = 99.4

[[record]]
compound = "CC1(C)[C@@H](NCCS[C@@H]2O[C@H](C(=O)O)[C@@H](O)[C@H](O)[C@H]2O)CC[C@]2(C)[C@H]3C(=O)C=C4[C@@H]5C[C@@](C)(C(=O)O)CC[C@]5(C)CC[C@@]4(C)[C@]3(C)CC[C@@H]12 [Compound 3]"
endpoint_name = "Viability %"
unit = "%"
test_result = 105.5


---

- Tested on: MDCK cells
- assay.name: Cytotoxicity determination: cell viability of uninfected cells, CellTiter-Glo luminescent cell viability assay
- details: 250 µM, 48 h, MDCK cells
Listing: Viability % of selected molecules
endpoint.name: Viability % (%)

[[record]]
molecule = "CC(=O)N(CCS[C@@H]1O[C@H](C(=O)O)[C@@H](O)[C@H](O)[C@H]1O)[C@H]1CC[C@]2(C)[C@H]3C(=O)C=C4[C@@H]5C[C@@](C)(C(=O)O)CC[C@]5(C)CC[C@@]4(C)[C@]3(C)CC[C@H]2C1(C)C [Compound 5]"
target_system = "MDCK cells"
unit = "%"
test_result = 93.5

[[record]]
molecule = "COC(=O)CCC(=O)N(CCS[C@@H]1O[C@H](C(=O)OC)[C@@H](O)[C@H](O)[C@H]1O)[C@H]1CC[C@]2(C)[C@H]3C(=O)C=C4[C@@H]5C[C@@](C)(C(=O)O)CC[C@]5(C)CC[C@@]4(C)[C@]3(C)CC[C@H]2C1(C)C [Compound 6]"
target_system = "MDCK cells"
unit = "%"
test_result = 106.3

[[record]]
molecule = "COC(=O)[C@H]1O[C@@H](SCCN[C@H]2CC[C@]3(C)[C@H]4C(=O)C=C5[C@@H]6C[C@@](C)(C(=O)O)CC[C@]6(C)CC[C@@]5(C)[C@]4(C)CC[C@H]3C2(C)C)[C@H](O)[C@@H](O)[C@@H]1O [Compound 2]"
target_system = "MDCK cells"
unit = "%"
test_result = 101.2

[[record]]
molecule = "CC1(C)[C@@H](O[C@H]2O[C@H](C(=O)O)[C@@H](O)[C@H](O)[C@H]2O[C@@H]2O[C@H](C(=O)O)[C@@H](O)[C@H](O)[C@H]2O)CC[C@]2(C)[C@H]3C(=O)C=C4[C@@H]5C[C@@](C)(C(=O)O)CC[C@]5(C)CC[C@@]4(C)[C@]3(C)CC[C@@H]12 [Glycyrrhizin, glycyrrhizin, reference compound]"
target_system = "MDCK cells"
unit = "%"
test_result = 105.3


---

- System: MDCK cells
- assay.name: Cytotoxicity determination: cell viability of uninfected cells, CellTiter-Glo luminescent cell viability assay
- details: 25 µM, 48 h, MDCK cells
endpoint.name: Viability % (%)

[[record]]
molecule = "CC1(C)[C@@H](NCCS[C@@H]2O[C@H](C(=O)O)[C@@H](O)[C@H](O)[C@H]2O)CC[C@]2(C)[C@H]3C(=O)C=C4[C@@H]5C[C@@](C)(C(=O)O)CC[C@]5(C)CC[C@@]4(C)[C@]3(C)CC[C@@H]12 [Compound 3]"
test_result = 103.5

[[record]]
molecule = "COC(=O)[C@H]1O[C@@H](SCCN[C@H]2CC[C@]3(C)[C@H]4C(=O)C=C5[C@@H]6C[C@@](C)(C(=O)O)CC[C@]6(C)CC[C@@]5(C)[C@]4(C)CC[C@H]3C2(C)C)[C@H](O)[C@@H](O)[C@@H]1O [Compound 2]"
test_result = 114.6

[[record]]
molecule = "CC(=O)N(CCS[C@@H]1O[C@H](C(=O)O)[C@@H](O)[C@H](O)[C@H]1O)[C@H]1CC[C@]2(C)[C@H]3C(=O)C=C4[C@@H]5C[C@@](C)(C(=O)O)CC[C@]5(C)CC[C@@]4(C)[C@]3(C)CC[C@H]2C1(C)C [Compound 5]"
test_result = 106.6

[[record]]
molecule = "COC(=O)[C@H]1O[C@@H](SCCN(C(C)=O)[C@H]2CC[C@]3(C)[C@H]4C(=O)C=C5[C@@H]6C[C@@](C)(C(=O)O)CC[C@]6(C)CC[C@@]5(C)[C@]4(C)CC[C@H]3C2(C)C)[C@H](O)[C@@H](O)[C@@H]1O [Compound 4]"
test_result = 104.4

[[record]]
molecule = "COC(=O)CCC(=O)N(CCS[C@@H]1O[C@H](C(=O)OC)[C@@H](O)[C@H](O)[C@H]1O)[C@H]1CC[C@]2(C)[C@H]3C(=O)C=C4[C@@H]5C[C@@](C)(C(=O)O)CC[C@]5(C)CC[C@@]4(C)[C@]3(C)CC[C@H]2C1(C)C [Compound 6]"
test_result = 107.3

[[record]]
molecule = "CC1(C)[C@@H](O[C@H]2O[C@H](C(=O)O)[C@@H](O)[C@H](O)[C@H]2O[C@@H]2O[C@H](C(=O)O)[C@@H](O)[C@H](O)[C@H]2O)CC[C@]2(C)[C@H]3C(=O)C=C4[C@@H]5C[C@@](C)(C(=O)O)CC[C@]5(C)CC[C@@]4(C)[C@]3(C)CC[C@@H]12 [Glycyrrhizin, glycyrrhizin, reference compound]"
test_result = 100.9


// data source = patent EP2258713A1
